Attribution: ChEMBL document CHEMBL6127061

protocolText: AUCinfinity in ICR mouse at 10 mg/kg, po measured upto 24 hrs by LC-MS/MS analysis
Format: ADME, organism-based
measurementConditions: in vivo
outcomeMeasure: AUC(0-inf) (ng·h/mL)
Field format: number, assumed ng·h/mL, no unit text.

// field: AUC(0-inf); key: Cc1cc(Nc2ncc(Cl)c(Nc3ccccc3S(=O)(=O)C(C)C)n2)c(OC(C)C)cc1C1CCN(C2CN(C3CCN(c4ccc5c(c4)C(=O)N(C4CCC(=O)NC4=O)C5=O)CC3)C2)CC1 (stereo unspecified) ; value = 30800

* * *

protocolText: MRT(0 to t) in ICR mouse at 10 mg/kg, po measured upto 24 hrs by LC-MS/MS analysis
Format: ADME, organism-based
measurementConditions: in vivo
outcomeMeasure: MRT last at 24 h

// field: MRT last at 24 h; key: Cc1cc(Nc2ncc(Cl)c(Nc3ccccc3S(=O)(=O)C(C)C)n2)c(OC(C)C)cc1C1CCN(C2CN(C3CCN(c4ccc5c(c4)C(=O)N(C4CCC(=O)NC4=O)C5=O)CC3)C2)CC1 (stereo unspecified) ; value = 8.61 h

* * *

protocolText: AUC(0 to 24 hrs) in ICR mouse at 10 mg/kg, po measured upto 24 hrs by LC-MS/MS analysis
Type: ADME, organism-based
measurementConditions: in vivo
outcomeMeasure: AUC(0-t) at 24 h (ng·h/mL)
Field format: number, assumed ng·h/mL, no unit text.

// field: AUC(0-t) at 24 h; key: Cc1cc(Nc2ncc(Cl)c(Nc3ccccc3S(=O)(=O)C(C)C)n2)c(OC(C)C)cc1C1CCN(C2CN(C3CCN(c4ccc5c(c4)C(=O)N(C4CCC(=O)NC4=O)C5=O)CC3)C2)CC1 (stereo unspecified) ; value = 23900

* * *

protocolText: Half life in ICR mouse at 1 mg/kg, iv measured upto 24 hrs by LC-MS/MS analysis
Format: ADME, organism-based
measurementConditions: in vivo
outcomeMeasure: half-life (h)
Field format: number, assumed h, no unit text.

// field: half-life; key: Cc1cc(Nc2ncc(Cl)c(Nc3ccccc3S(=O)(=O)C(C)C)n2)c(OC(C)C)cc1C1CCN(C2CN(C3CCN(c4ccc5c(c4)C(=O)N(C4CCC(=O)NC4=O)C5=O)CC3)C2)CC1 (stereo unspecified) ; value = 10.8

* * *

protocolText: Tmax in ICR mouse at 10 mg/kg, po measured upto 24 hrs by LC-MS/MS analysis
Assay type: ADME, organism-based
measurementConditions: in vivo
outcomeMeasure: Tmax (h)
Field format: number, assumed h, no unit text.

// field: Tmax; key: Cc1cc(Nc2ncc(Cl)c(Nc3ccccc3S(=O)(=O)C(C)C)n2)c(OC(C)C)cc1C1CCN(C2CN(C3CCN(c4ccc5c(c4)C(=O)N(C4CCC(=O)NC4=O)C5=O)CC3)C2)CC1 (stereo unspecified) ; value = 4

* * *

protocolText: MRTinfinity in ICR mouse at 10 mg/kg, po measured upto 24 hrs by LC-MS/MS analysis
Assay type: ADME, organism-based
measurementConditions: in vivo
outcomeMeasure: MRT inf (h)
Field format: number, assumed h, no unit text.

// field: MRT inf; key: Cc1cc(Nc2ncc(Cl)c(Nc3ccccc3S(=O)(=O)C(C)C)n2)c(OC(C)C)cc1C1CCN(C2CN(C3CCN(c4ccc5c(c4)C(=O)N(C4CCC(=O)NC4=O)C5=O)CC3)C2)CC1 (stereo unspecified) ; value = 15.7
